Cited source: patent US20260258115A1

- Assayed System: RSV F on RSV subtype B virus (mKate-RSV B 18537) (respiratory syncytial virus B 18537, UniProt P13843 26-574)
- Sequence (P13843 26-574): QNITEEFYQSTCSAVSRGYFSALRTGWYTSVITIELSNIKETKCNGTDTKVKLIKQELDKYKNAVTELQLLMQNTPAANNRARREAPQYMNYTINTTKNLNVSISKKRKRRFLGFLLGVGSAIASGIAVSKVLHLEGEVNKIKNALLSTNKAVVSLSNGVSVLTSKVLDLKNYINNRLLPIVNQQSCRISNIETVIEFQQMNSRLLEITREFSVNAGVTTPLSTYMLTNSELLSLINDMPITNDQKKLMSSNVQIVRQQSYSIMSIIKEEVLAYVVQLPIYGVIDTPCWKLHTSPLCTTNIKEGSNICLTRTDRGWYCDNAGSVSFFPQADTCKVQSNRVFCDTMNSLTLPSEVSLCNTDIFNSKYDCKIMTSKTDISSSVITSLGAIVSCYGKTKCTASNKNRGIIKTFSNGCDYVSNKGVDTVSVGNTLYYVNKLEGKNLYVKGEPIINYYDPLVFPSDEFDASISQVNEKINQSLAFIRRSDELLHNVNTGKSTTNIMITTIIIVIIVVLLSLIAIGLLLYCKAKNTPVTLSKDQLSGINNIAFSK
- Measurement Protocol: cell-based or functional assay
Reported Metric: Neut IC50 subtype B

- ADI-14346 (antibody, V domains shown, full-length IgG; also called Ab 14) VH: EVQLLESGGGLVKPGGSLRLSCAASGFRFSSYSMNWVRQAPGKWLEWVSSISASSSYTDYADSVKGRFTISRDNAKNSLYLQMNSLRAEDTAVYYCAREDYLSSGSLLHWFDPWGQGTLVTVSS VL: QPVLTQPPSVSGAPGQRVTISCTGSSSNIGAGYDVHWYQQLPGTAPKLLIYGNNNRPSGVPDRFSGSKSGTSASLAITGLQAEDEADYYCQSYDSRLSVLFGGGTKVTVL: 0.07 µg/mL
